B1: 2M8U (parent)
chain: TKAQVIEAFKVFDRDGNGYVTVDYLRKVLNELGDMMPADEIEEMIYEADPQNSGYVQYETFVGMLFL

- Variants of: B1
- TEST DETAILS: folding stability dG (cDNA display proteolysis); higher = more stable
- SETTINGS: PBS, room temperature
OBSERVATION TYPE: folding stability dG (kcal/mol)

[[record]]
sequence_text = "TKAQVIEAFKVFDRDDNGYVTVDYLRKVLNELGDMMPADEIEEMIYEADPQNSGYVQYETFVGMLFL [G16D]"
units = "kcal/mol"
measured_number = 3.28

[[record]]
sequence_text = "TKAQVIEAFKVFDRDGNGYVTVDYLRKVLNELGDMMPADEIEEMIYEADPQNHGYVQYETFVGMLFL [S53H]"
units = "kcal/mol"
measured_number = 3.11

[[record]]
sequence_text = "TKAQVIEAFKVFDRDGNGYVTVDYLRKVLNELGDMMPADEIREMIYEADPQNSGYVQYETFVGMLFL [E42R]"
units = "kcal/mol"
measured_number = 3.14

[[record]]
sequence_text = "TKAQVIEAFKVFDRDGNGYVTVDYLRKVLNELGDMMPADEIEEMIYEADPQNSGYVQYITFVGMLFL [E59I]"
units = "kcal/mol"
measured_number = 3.41

[[record]]
sequence_text = "TKAQVFEAFKVFDRDGNGYVTVDYLRKVLNELGDMMPADEIEEMIYEADPQNSGYVQYETFVGMLFL [I6F]"
units = "kcal/mol"
measured_number = 2.6

[[record]]
sequence_text = "TKAQVIEAFIVFDRDGNGYVTVDYLRKVLNELGDMMPADEIEEMIYEADPQNSGYVQYETFVGMLFL [K10I]"
units = "kcal/mol"
measured_number = 3.32

[[record]]
sequence_text = "TKAQVIEAFKVFDRDGNGYVTVDYLRKVLNELGDMMPADEIEEMIYEADCQNSGYVQYETFVGMLFL [P50C]"
units = "kcal/mol"
measured_number = 3.11

[[record]]
sequence_text = "TKAQVIEAFKVFDRDGNGYVTVDYLRKVLNELGDMMPADEIEEMIYEADPQNSGYVQHETFVGMLFL [Y58H]"
units = "kcal/mol"
measured_number = 1.99

[[record]]
sequence_text = "TKAQVIEAFKVFDRDGIGYVTVDYLRKVLNELGDMMPADEIEEMIYEADPQNSGYVQYETFVGMLFL [N17I]"
units = "kcal/mol"
measured_number = 3.1

[[record]]
sequence_text = "TKAQVIEAFKNFDRDGNGYVTVDYLRKVLNELGDMMPADEIEEMIYEADPQNSGYVQYETFVGMLFL [V11N]"
units = "kcal/mol"
measured_number = 3.51

[[record]]
sequence_text = "TKAQVIEAFKVFDRDGNGYVTVDYLRKVLNELGDMMPADEIEEMIYEAMPQNSGYVQYETFVGMLFL [D49M]"
units = "kcal/mol"
measured_number = 2.71

[[record]]
sequence_text = "TKAQVIEAFKVFDRDGNGYVTVDYLRKVLNELGDMMPADEIEEMIYEADPQNSGYVQYETFVGMLGL [F66G]"
units = "kcal/mol"
measured_number = 2.57

[[record]]
sequence_text = "TKAQVIEAFKVFDRDGNGYVTVDYLRKVLGELGDMMPADEIEEMIYEADPQNSGYVQYETFVGMLFL [N30G]"
units = "kcal/mol"
measured_number = 3.6

[[record]]
sequence_text = "TKAQVIEAFKVFSRDGNGYVTVDYLRKVLNELGDMMPADEIEEMIYEADPQNSGYVQYETFVGMLFL [D13S]"
units = "kcal/mol"
measured_number = 1.57

[[record]]
sequence_text = "TKAQVIEAFKVFDRDGNGYVTVDYLRKVLNELGDMMPADEQEEMIYEADPQNSGYVQYETFVGMLFL [I41Q]"
units = "kcal/mol"
measured_number = 2.78

[[record]]
sequence_text = "TKAQVIEAFKVFDRDGNGYVTVDYLRKVLNELEDMMPADEIEEMIYEADPQNSGYVQYETFVGMLFL [G33E]"
units = "kcal/mol"
measured_number = 3.48

[[record]]
sequence_text = "TKAQVIEAFKVFDRDGNGYVTVDYLRKVLNELRDMMPADEIEEMIYEADPQNSGYVQYETFVGMLFL [G33R]"
units = "kcal/mol"
measured_number = 3.51

[[record]]
sequence_text = "TKAQVIEAFKVFDRDGNGYVTVDYLRKVLNELGDMMPSDEIEEMIYEADPQNSGYVQYETFVGMLFL [A38S]"
units = "kcal/mol"
measured_number = 3.56

[[record]]
sequence_text = "TKAQVIEAFKVFDRDGNGYVTVDYLRKVLNELGDMMPADEIEEMIYEADPQNSGYVQYETFVGMYFL [L65Y]"
units = "kcal/mol"
measured_number = 3.04

[[record]]
sequence_text = "TKAQVIEAFKVFDRDGNGYVTVDYLRKVLNELGDMMPAQEIEEMIYEADPQNSGYVQYETFVGMLFL [D39Q]"
units = "kcal/mol"
measured_number = 3.59

[[record]]
sequence_text = "TKAQVIEAFKVFDRDGNGYVTVDYLRKVLNELGDMMPADEFEEMIYEADPQNSGYVQYETFVGMLFL [I41F]"
units = "kcal/mol"
measured_number = 3.5

[[record]]
sequence_text = "TKAQVIEAFKVFDRDGNGYYTVDYLRKVLNELGDMMPADEIEEMIYEADPQNSGYVQYETFVGMLFL [V20Y]"
units = "kcal/mol"
measured_number = 1.85

[[record]]
sequence_text = "TKAQVQEAFKVFDRDGNGYVTVDYLRKVLNELGDMMPADEIEEMIYEADPQNSGYVQYETFVGMLFL [I6Q]"
units = "kcal/mol"
measured_number = 2.31

[[record]]
sequence_text = "TKAQVIEAFKVFDRDGNGYVTVDYLRKVLNELGDMMPADEIEEMIYEADPQNSGYVQYETFVGMLEL [F66E]"
units = "kcal/mol"
measured_number = 2.56

[[record]]
sequence_text = "TKAQVIEAFKVFDRDGNGYVTVDYLRKVLNELGDMMPADEIEEMIYEYDPQNSGYVQYETFVGMLFL [A48Y]"
units = "kcal/mol"
measured_number = 3.48

[[record]]
sequence_text = "TKAQVIEAFKVFDRDGNGYVTVDYLRKVLNELGDAMPADEIEEMIYEADPQNSGYVQYETFVGMLFL [M35A]"
units = "kcal/mol"
measured_number = 3.09

[[record]]
sequence_text = "TKAQVIEAFKVFDRDGNGYVTVDYLRKVLNELGDMMPADEIEEMIYEADPQNSGYVQYEEFVGMLFL [T60E]"
units = "kcal/mol"
measured_number = 3.61

[[record]]
sequence_text = "TKAQVIEAFKVFDRDGNGYVTVDYLRKVLNELGDMMPADEIEEMIYTADPQNSGYVQYETFVGMLFL [E47T]"
units = "kcal/mol"
measured_number = 3.73

[[record]]
sequence_text = "TKAQVIEAFKVFDRDGNGYVTVDYLRKVLNELGDMMPADEIEEMIYEADPQNSGYVQYETFVGMLFC [L67C]"
units = "kcal/mol"
measured_number = 3.61

[[record]]
sequence_text = "TKAQVIEAFKVFDRDGNGYVTVDYLRKVLNELGDMMPADEIEEMFYEADPQNSGYVQYETFVGMLFL [I45F]"
units = "kcal/mol"
measured_number = 2.61

[[record]]
sequence_text = "TKAQVIEAFKVFDRDGNGYVTVDYLRKVLNELGDMMPAIEIEEMIYEADPQNSGYVQYETFVGMLFL [D39I]"
units = "kcal/mol"
measured_number = 3.83

[[record]]
sequence_text = "TKAVVIEAFKVFDRDGNGYVTVDYLRKVLNELGDMMPADEIEEMIYEADPQNSGYVQYETFVGMLFL [Q4V]"
units = "kcal/mol"
measured_number = 3.02

[[record]]
sequence_text = "TKEQVIEAFKVFDRDGNGYVTVDYLRKVLNELGDMMPADEIEEMIYEADPQNSGYVQYETFVGMLFL [A3E]"
units = "kcal/mol"
measured_number = 3.69

[[record]]
sequence_text = "TKAQVIEAFKVFDRDGNGYVTVDYLRKVLNELGDMMPADEIEEMIYEADPQNSGYCQYETFVGMLFL [V56C]"
units = "kcal/mol"
measured_number = 2.17

[[record]]
sequence_text = "TKAQVIEAFKVFDRDGNGYVTVDYLRKVLNELGDMMPADEIEEMIYEADPQNSGYVQYETFVGMLAL [F66A]"
units = "kcal/mol"
measured_number = 2.62

[[record]]
sequence_text = "TKAQVIEAFKVFDRDGNGYVTVDYMRKVLNELGDMMPADEIEEMIYEADPQNSGYVQYETFVGMLFL [L25M]"
units = "kcal/mol"
measured_number = 2.69

[[record]]
sequence_text = "TKAQVIEAFKVFDRDGNGYVTVDYLRKVLNELGDMMPADNIEEMIYEADPQNSGYVQYETFVGMLFL [E40N]"
units = "kcal/mol"
measured_number = 4.09

[[record]]
sequence_text = "TKAQVIEAFKVFDRDGNGYVTVDYLRKVLNELGDMMPADEIEEMIYEAVPQNSGYVQYETFVGMLFL [D49V]"
units = "kcal/mol"
measured_number = 2.58

[[record]]
sequence_text = "TKAQVIEAFWVFDRDGNGYVTVDYLRKVLNELGDMMPADEIEEMIYEADPQNSGYVQYETFVGMLFL [K10W]"
units = "kcal/mol"
measured_number = 3.01

[[record]]
sequence_text = "TKAQVIEAFKVFDRDGNGYVTVDYLRKVLNELGDMMPADEIEEMIYDADPQNSGYVQYETFVGMLFL [E47D]"
units = "kcal/mol"
measured_number = 3.49

[[record]]
sequence_text = "TKAQVIEAFKVFDRDGNGYVTVDYLRKVLNWLGDMMPADEIEEMIYEADPQNSGYVQYETFVGMLFL [E31W]"
units = "kcal/mol"
measured_number = 3.64

[[record]]
sequence_text = "TKAQVIEAFKVCDRDGNGYVTVDYLRKVLNELGDMMPADEIEEMIYEADPQNSGYVQYETFVGMLFL [F12C]"
units = "kcal/mol"
measured_number = 3.15

[[record]]
sequence_text = "TKAQVIEAFKVFDRDGNGYVTVDYLRKVLNELGRMMPADEIEEMIYEADPQNSGYVQYETFVGMLFL [D34R]"
units = "kcal/mol"
measured_number = 3.51

[[record]]
sequence_text = "TKAQVIEAFKVFDRDGNGYVTVDPLRKVLNELGDMMPADEIEEMIYEADPQNSGYVQYETFVGMLFL [Y24P]"
units = "kcal/mol"
measured_number = 1.24

[[record]]
sequence_text = "TKALVIEAFKVFDRDGNGYVTVDYLRKVLNELGDMMPADEIEEMIYEADPQNSGYVQYETFVGMLFL [Q4L]"
units = "kcal/mol"
measured_number = 3.21

[[record]]
sequence_text = "TKAQVIEAFKVFDRDGNGYVTVDYLRKVLNELGDMMPADEIEEMIYEADPQNSFYVQYETFVGMLFL [G54F]"
units = "kcal/mol"
measured_number = 2.89

